Give measured RAT MICROSOMAL STABILITY (% REMAINING AFTER 30 MINUTES) for each item. Keep answers brief.
# Protocol Summary: In vitro rat microsomal stability assay
# Assay type: in vitro ADME, rat (Sprague-Dawley)
# Particulars: Sprague-Dawley, rat, 0.5 h, 0.5 μM, pH 7.4

Problem: State the recorded RAT MICROSOMAL STABILITY (% REMAINING AFTER 30 MINUTES) for this entry: OC1CC(c2cc(C(F)(F)F)ccn2)(C(O)c2ccccn2)C1 (centres unmarked) [Example 283]
Result: >85%

Problem: State the recorded RAT MICROSOMAL STABILITY (% REMAINING AFTER 30 MINUTES) for this entry: OC(C1CCCc2cccnc21)C1(c2ccccc2C(F)(F)F)CCC1 (centres unmarked) [Example 196]
Result: <0.01%

Problem: State the recorded RAT MICROSOMAL STABILITY (% REMAINING AFTER 30 MINUTES) for this entry: OC1CC(c2ccc(Cl)c(Cl)c2)(C(O)c2ncccn2)C1 (centres unmarked) [Example 312]
Result: >85%

Problem: State the recorded RAT MICROSOMAL STABILITY (% REMAINING AFTER 30 MINUTES) for this entry: OC(c1ccccn1)C1(c2ccc(OC(F)(F)F)cc2)CC2(C1)OCCO2 (centres unmarked)
Result: <0.01%

Problem: State the recorded RAT MICROSOMAL STABILITY (% REMAINING AFTER 30 MINUTES) for this entry: CC(C)(C)OC(=O)N1CCC(C2(C(O)c3ccccn3)CCC2)CC1 (centres unmarked)
Result: <0.01%

###

# Protocol Summary: In vitro rat microsomal stability assay
# Format: in vitro ADME, rat (Sprague-Dawley)
# Particulars: Sprague-Dawley, rat, 0.5 h, 0.5 μM, pH 7.4
Give measured RAT MICROSOMAL STABILITY (% REMAINING AFTER 30 MINUTES) for each item. Keep answers brief.

Problem: State the recorded RAT MICROSOMAL STABILITY (% REMAINING AFTER 30 MINUTES) for this entry: OC1CC(c2ccc(Cl)c(Cl)c2)(C(O)c2ccccn2)C1 (stereo not shown) [Example 247]
Result: >85%

Problem: State the recorded RAT MICROSOMAL STABILITY (% REMAINING AFTER 30 MINUTES) for this entry: Nc1cccnc1C(O)C1(c2cccc(OC(F)(F)F)c2)CCC1 (stereo not shown)
Result: <0.01%

Problem: State the recorded RAT MICROSOMAL STABILITY (% REMAINING AFTER 30 MINUTES) for this entry: OC1CC(c2ccc(C(F)(F)F)cc2)([C@@H](O)c2ccccn2)C1 (mixture of isomers)
Result: >85%

Problem: State the recorded RAT MICROSOMAL STABILITY (% REMAINING AFTER 30 MINUTES) for this entry: OC(C1CCc2cccnc21)C1(c2cccc(OC(F)(F)F)c2)CCC1 (stereo not shown) [Example 190]
Result: <0.01%

Problem: State the recorded RAT MICROSOMAL STABILITY (% REMAINING AFTER 30 MINUTES) for this entry: CC(=O)O[C@H](c1ccccn1)C1(c2ccc(OC(F)(F)F)cc2)CCC1
Result: <0.01%

Problem: State the recorded RAT MICROSOMAL STABILITY (% REMAINING AFTER 30 MINUTES) for this entry: CC1(O)CC(c2ccc(OC(F)(F)F)cc2)(C(O)c2ncccn2)C1 (stereo not shown)
Result: >85%

Problem: State the recorded RAT MICROSOMAL STABILITY (% REMAINING AFTER 30 MINUTES) for this entry: O=C1CC(c2ccnc(C(F)(F)F)c2)([C@H](O)c2ccccn2)C1
Result: >85%

Problem: State the recorded RAT MICROSOMAL STABILITY (% REMAINING AFTER 30 MINUTES) for this entry: OC(C1CCCc2cccnc21)C1(c2cccc(OC(F)(F)F)c2)CCC1 (stereo not shown) [Example 187]
Result: <0.01%

Problem: State the recorded RAT MICROSOMAL STABILITY (% REMAINING AFTER 30 MINUTES) for this entry: OC(C1CCc2cccnc21)C1(c2ccc(Cl)c(Cl)c2)CCC1 (stereo not shown) [Example 167]
Result: <0.01%

Problem: State the recorded RAT MICROSOMAL STABILITY (% REMAINING AFTER 30 MINUTES) for this entry: COc1ccc(C(O)C2(c3ccc(Cl)c(Cl)c3)CCC2)nc1 (stereo not shown)
Result: <0.01%

###

Give measured HUMAN MICROSOMAL STABILITY (% REMAINING AFTER 30 MINUTES) for each item. Keep answers brief.
# Protocol Summary: In vitro human microsomal stability assay
# Assay type: in vitro ADME
# Particulars: human, 0.5 h, 0.5 μM, pH 7.4
Provide the reading as a plain figure in %.

Problem: State the recorded HUMAN MICROSOMAL STABILITY (% REMAINING AFTER 30 MINUTES) for this entry: OC(c1ccccn1)C1(c2ccccc2F)CCCO1 (centres unmarked) [Example 103]
Result: 73

Problem: State the recorded HUMAN MICROSOMAL STABILITY (% REMAINING AFTER 30 MINUTES) for this entry: OC(c1ccccn1)C1(c2ccccc2C(F)(F)F)CCC1 (centres unmarked)
Result: 0.27

Problem: State the recorded HUMAN MICROSOMAL STABILITY (% REMAINING AFTER 30 MINUTES) for this entry: OC(c1ccccn1)C1(c2cccc(OC(F)(F)F)c2)CCCO1 (centres unmarked) [Example 92]
Result: 2.7

Problem: State the recorded HUMAN MICROSOMAL STABILITY (% REMAINING AFTER 30 MINUTES) for this entry: OC1CC(c2ccc(F)c(Cl)c2)([C@H](O)c2ccccn2)C1 (some centres unmarked)
Result: 72

Problem: State the recorded HUMAN MICROSOMAL STABILITY (% REMAINING AFTER 30 MINUTES) for this entry: O[C@H](c1ccccn1)C1(c2ccc(C(F)(F)F)cc2)CC(F)(F)C1
Result: 56

###

Give measured HUMAN MICROSOMAL STABILITY (% REMAINING AFTER 30 MINUTES) for each item. Keep answers brief.
# Protocol Summary: In vitro human microsomal stability assay
# Type: in vitro ADME
# Particulars: human, 0.5 h, 0.5 μM, pH 7.4

Problem: State the recorded HUMAN MICROSOMAL STABILITY (% REMAINING AFTER 30 MINUTES) for this entry: O[C@H](c1ccccn1)C1(c2ccc(C(F)(F)F)cc2F)CCC1
Result: 13%

Problem: State the recorded HUMAN MICROSOMAL STABILITY (% REMAINING AFTER 30 MINUTES) for this entry: CC1(O)CC(c2cncc(C(F)(F)F)c2)(C(O)c2ccccn2)C1 (stereo not drawn)
Result: 41%

Problem: State the recorded HUMAN MICROSOMAL STABILITY (% REMAINING AFTER 30 MINUTES) for this entry: OC(c1ccccn1)C1(c2cccc(F)c2)CCCO1 (single isomer, unassigned) [Example 101]
Result: 40%

###

# Protocol Summary: In vitro rat microsomal stability assay
# Type: in vitro ADME, rat (Sprague-Dawley)
# Particulars: Sprague-Dawley, rat, 0.5 h, 0.5 μM, pH 7.4
Hi! Could you tag entries with RAT MICROSOMAL STABILITY (% REMAINING AFTER 30 MINUTES) below 10% as y, and those at or above as n? Much appreciated.

Problem: Say whether its RAT MICROSOMAL STABILITY (% REMAINING AFTER 30 MINUTES) is strictly beneath 10%. Entry: OC(c1ccccn1)C1(c2ccc(C(F)(F)F)cc2)CCCO1 (stereo not drawn) [Example 89]
Result: y

Problem: Say whether its RAT MICROSOMAL STABILITY (% REMAINING AFTER 30 MINUTES) is strictly beneath 10%. Entry: OC(c1ccccn1)C1(c2ccc(Cl)c(Cl)c2)CCCO1 (stereo not drawn) [Example 99]
Result: y

Problem: Say whether its RAT MICROSOMAL STABILITY (% REMAINING AFTER 30 MINUTES) is strictly beneath 10%. Entry: OC(c1ccccn1)C1(C2CCOC2)CCC1 (stereo not drawn) [Example 284]
Result: n

Problem: Say whether its RAT MICROSOMAL STABILITY (% REMAINING AFTER 30 MINUTES) is strictly beneath 10%. Entry: OC(c1ccccn1)C1(c2cccc(OC(F)(F)F)c2)CCCO1 (stereo not drawn) [Example 93]
Result: y

Problem: Say whether its RAT MICROSOMAL STABILITY (% REMAINING AFTER 30 MINUTES) is strictly beneath 10%. Entry: N[C@H]1CCC[C@H]1[C@H](O)C1(c2ccc(Cl)c(Cl)c2)CCC1 [Example 217]
Result: n

Problem: Say whether its RAT MICROSOMAL STABILITY (% REMAINING AFTER 30 MINUTES) is strictly beneath 10%. Entry: O=C1CC(c2cccc(C(F)(F)F)c2)([C@@H](O)c2ccccn2)C1 [Example 243]
Result: n

Problem: Say whether its RAT MICROSOMAL STABILITY (% REMAINING AFTER 30 MINUTES) is strictly beneath 10%. Entry: O=C1CC(c2cccc(C(F)(F)F)c2)(C(O)c2ccccn2)C1 (stereo not drawn) [Example 245]
Result: n

Problem: Say whether its RAT MICROSOMAL STABILITY (% REMAINING AFTER 30 MINUTES) is strictly beneath 10%. Entry: OC(C1CCCc2cccnc21)C1(c2cccc(C(F)(F)F)c2)CCC1 (stereo not drawn) [Example 179]
Result: y

Problem: Say whether its RAT MICROSOMAL STABILITY (% REMAINING AFTER 30 MINUTES) is strictly beneath 10%. Entry: CC(C)(C)OC(=O)N1CCC(c2ccc(C(F)(F)F)cc2)(C(O)c2ccccn2)CC1 (stereo not drawn) [Example 156]
Result: y

Problem: Say whether its RAT MICROSOMAL STABILITY (% REMAINING AFTER 30 MINUTES) is strictly beneath 10%. Entry: NC1CCC1C(O)C1(c2cccc(C(F)(F)F)c2)CCC1 (stereo not drawn) [Example 213]
Result: n

Problem: Say whether its RAT MICROSOMAL STABILITY (% REMAINING AFTER 30 MINUTES) is strictly beneath 10%. Entry: NC1CCCC1C(O)C1(c2cccc(C(F)(F)F)c2)CCC1 (stereo not drawn) [Example 204]
Result: n

Problem: Say whether its RAT MICROSOMAL STABILITY (% REMAINING AFTER 30 MINUTES) is strictly beneath 10%. Entry: OC(c1ccccn1)C1(C2CCCc3ccccc32)CCC1 (stereo not drawn) [Example 56]
Result: y

Problem: Say whether its RAT MICROSOMAL STABILITY (% REMAINING AFTER 30 MINUTES) is strictly beneath 10%. Entry: OC(c1ncccn1)C1(c2ccc(Cl)c(Cl)c2)CCC1 (stereo not drawn) [Example 38]
Result: y

Problem: Say whether its RAT MICROSOMAL STABILITY (% REMAINING AFTER 30 MINUTES) is strictly beneath 10%. Entry: OC(c1ccccn1)C1(c2ccncc2)CCC1 (stereo not drawn) [Example 21]
Result: n

Problem: Say whether its RAT MICROSOMAL STABILITY (% REMAINING AFTER 30 MINUTES) is strictly beneath 10%. Entry: O=C1CC(c2ccc(F)c(Cl)c2)([C@H](O)c2ccccn2)C1 [Example 268]
Result: n

Problem: Say whether its RAT MICROSOMAL STABILITY (% REMAINING AFTER 30 MINUTES) is strictly beneath 10%. Entry: OC(C1CCCc2cccnc21)C1(c2ccc(OC(F)(F)F)cc2)CCC1 (stereo not drawn) [Example 177]
Result: y

Problem: Say whether its RAT MICROSOMAL STABILITY (% REMAINING AFTER 30 MINUTES) is strictly beneath 10%. Entry: OC(c1ccccn1)C1(c2cccc(OC(F)(F)F)c2)CC2(C1)OCCO2 (stereo not drawn) [Example 235]
Result: y

Problem: Say whether its RAT MICROSOMAL STABILITY (% REMAINING AFTER 30 MINUTES) is strictly beneath 10%. Entry: Nc1cccnc1C(O)C1(c2cccc(C(F)(F)F)c2)CCC1 (stereo not drawn) [Example 120]
Result: y

Problem: Say whether its RAT MICROSOMAL STABILITY (% REMAINING AFTER 30 MINUTES) is strictly beneath 10%. Entry: OC(c1ccccn1)C1(C2CCC(C(F)(F)F)CC2)CCC1 (stereo not drawn) [Example 280]
Result: y

Problem: Say whether its RAT MICROSOMAL STABILITY (% REMAINING AFTER 30 MINUTES) is strictly beneath 10%. Entry: OC(C1CCc2cccnc21)C1(c2ccc(C(F)(F)F)cc2)CCC1 (stereo not drawn) [Example 173]
Result: y

Problem: Say whether its RAT MICROSOMAL STABILITY (% REMAINING AFTER 30 MINUTES) is strictly beneath 10%. Entry: OC(C1CCc2cccnc21)C1(c2ccc(Cl)c(Cl)c2)CCC1 (stereo not drawn) [Example 168]
Result: y

Recorded values, source patent US8772500B2.
